Assay: blockers of RIG-like receptor reporter activation – cell-based, Sendai virus stimulus, luciferase, 10K MLSCN set, TLR/RLR signaling modifier project, primary screen (AID 602276);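 also: firefly luciferase from ISG56 promoter only with Renilla not read in this screen; 0% = Sendai virus plus DMSO and 100% = medium plus DMSO without virus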
Settings: HEK293 RL24 IRF3 luciferase reporter, at 10 µM, stronger effect = higher value
Please respond with reported inhibition for every item in the list.
Express it in %; write the number only.

Asked: Hello, please tell me recorded inhibition for this one: CN(C)c1cccc(C(=O)OCC(=O)NCc2ccco2)c1
Given back: 10.8

Asked: Report measured inhibition; entry is O=S(=O)(c1ccc(OCC(O)CN2CCC(Cc3ccccc3)CC2)cc1)N1CCOCC1 (stereo unspecified)
Given back: -3.87

Asked: Please give measured inhibition of the following entry: O=C(OC1CCc2ccccc2C1=O)c1ccccc1O (stereo unspecified)
Given back: -5.07

Asked: Provide one value: measured inhibition of COc1ccccc1NC(=O)CSc1nnc(-c2ccncc2)o1
Given back: -2.18

Asked: Assign inhibition to the following record: O=C(NCC(=O)N(CCc1ccccc1)C(C(=O)NC1CCCC1)c1cccnc1)c1ccco1 (stereo unspecified)
Given back: 7.14

Asked: Provide only the value of recorded inhibition for O=C(O)c1cccc(CN2C(=O)SC(Nc3ccccc3)C2=O)c1 (stereo unspecified)
Given back: 8.76

Asked: Indicate the recorded inhibition value for this molecule: O=C(NCc1cccnc1)c1ccc(Cl)c(Cl)c1
Given back: 17

Asked: Provide only the value of recorded inhibition for Cc1ccc(S(=O)(=O)CCc2nnc(NC(=O)c3cnccn3)s2)cc1
Given back: 10.8

Asked: Respond only with inhibition recorded for CC1(C)CC2CC(C)(CN2S(=O)(=O)c2ccc(N)cc2)C1 (stereo unspecified)
Given back: 10.2

Asked: Give a short answer stating reported inhibition for Cc1cc(C(=O)Nc2c(C)n(C)n(-c3ccccc3)c2=O)c(C)o1 .
Given back: 17

Asked: Kindly indicate its recorded inhibition. Item: CC(C)(C)NS(=O)(=O)c1ccc(CCC(=O)O)cc1
Given back: 9.55

Asked: For the molecule CCc1nnc(NC(=O)CCC(=O)Nc2ccccc2)s1 , give its measured inhibition value.
Given back: 9.85

Asked: Determine its reported inhibition: Nn1cc(-c2ccccc2)nc1SCC(=O)N1CCN(S(=O)(=O)c2ccccc2)CC1
Given back: 8.62

Asked: Read the entry CC(=O)N1CN(C2CCCC2)Cc2c1sc1c2CCCC1 and write its reported inhibition.
Given back: 5.21

Asked: Report inhibition for Cc1ccc(/C(O)=C2\C(=O)C(=O)N(CCCN(C)C)C2c2ccccn2)cc1 (stereo unspecified)
Given back: 16.3

Asked: Give recorded inhibition. CCOC(=O)CSc1nn(C)c(=S)s1
Given back: 3.99

Asked: Note inhibition for the molecule shown: CCCn1c(SCC(=O)NCCc2ccccc2)nnc1-c1ccccn1
Given back: 3.67

Asked: Indicate the recorded inhibition value for this molecule: COc1ccc(S(=O)(=O)N(C)CC(=O)N2CCCCC2)cc1Cl
Given back: 13.8

Asked: # return recorded inhibition for input O=C(C1=C(O)C(=O)N(Cc2ccccc2)C1c1ccncc1)c1ccco1 (stereo unspecified)
Given back: -5.31

Asked: Identify measured inhibition corresponding to O=C1NC(c2ccco2)Nc2ccccc21 (stereo unspecified)
Given back: -17.2

Asked: Identify inhibition associated with the molecule COC(=O)c1cccc(NC(=O)C2COc3ccccc3O2)c1C (stereo unspecified)
Given back: -2.98

Asked: Read off the recorded inhibition for COc1cccc(N2C(=O)N(c3ccccc3Cl)C3CS(=O)(=O)CC32)c1 (stereo unspecified)
Given back: 15.6

Asked: Look up and state reported inhibition for CCC(C(=O)Nc1ccccc1C(=O)N1CCCC1)N1C(=O)c2ccccc2C1=O (stereo unspecified)
Given back: 4.49

Asked: Provide one value: measured inhibition of CSc1ccccc1NC(=O)C1CCCO1 (stereo unspecified)
Given back: -13.9

Asked: Check the records and state inhibition for O=C(CCCn1c(=S)[nH]c2cc3c(cc2c1=O)OCO3)N1CCN(c2ccccc2F)CC1
Given back: 8.7

Asked: Give the value of inhibition reported for the following: O=C(Nc1ccccc1)N(Cc1cccnc1)Cc1ccco1
Given back: 18.2

Asked: Give inhibition for the following molecule: O=C(NCc1ccc2c(c1)OCO2)c1ccc(NS(=O)(=O)c2ccc3c(c2)OCCO3)cc1
Given back: 10.8

Asked: Please indicate inhibition recorded for CCCCSc1nc(CCC)cc(=O)[nH]1
Given back: 5.02

Asked: Give the reported inhibition for this molecule. Cc1cc(-c2ccccc2)nc(SCc2ccc(C(=O)O)o2)n1
Given back: 7.19

Asked: Please list inhibition recorded for the molecule COc1cccc(NC(=O)COc2ccccc2C(N)=O)c1
Given back: -78.1

Asked: Complete the entry with inhibition for CCC(=O)Nc1cc(Cl)ccc1N1CCN(C(=O)CC)CC1
Given back: 18.6

Asked: Quickly give me recorded inhibition for CCOC(=O)N1CCN(C(=O)c2cnn(-c3ccccc3)c2NC(=O)c2ccccc2F)CC1
Given back: 16

Asked: Retrieve inhibition measured for O=C(CN1C(=O)COCC1=O)N1CCOCC1 and print it.
Given back: 9.66

Asked: Give the measured inhibition for O=C1CC(c2cccnc2)c2cc3c(cc2N1)OCO3 (stereo unspecified)
Given back: 0.756

Asked: Supply recorded inhibition for Cc1cc2c(c(=O)n1C)C(Cc1ccccc1)C(C#N)=C(N)O2 (stereo unspecified) here.
Given back: 9.72

Asked: Entry Cc1ccc(S(=O)(=O)CC(=O)N2CCCCCC2)cc1 needs its inhibition filled in; supply it.
Given back: -16.3

Asked: Tell us which inhibition value is on record for CS(=O)(=O)N1CCCC(C(=O)NCCCN2CCc3ccccc3C2)C1 (stereo unspecified)
Given back: -8.77

Asked: Give recorded inhibition. COc1cccc(NC(=O)Cc2nnc(SCC(=O)c3ccccc3)n2C)c1
Given back: 3.81

Asked: Return inhibition for the following molecule: CCC(C(=O)NC1CCCC1)N(Cc1ccco1)C(=O)Cn1nnc(-c2ccc(C)cc2)n1 (stereo unspecified)
Given back: 10.8

Asked: Given CC(C)C(c1nnnn1C1CCCC1)N1CCN(C(=O)c2ccco2)CC1 (stereo unspecified) , respond with its inhibition.
Given back: -4.43

Asked: Please list inhibition recorded for the molecule O=C(CN1C(=O)CSC1=O)Nc1ccc(N2CCOCC2)cc1
Given back: -8.99

Asked: Let me know recorded inhibition for Cc1nc(NC2=NCN(CCN3CCOCC3)CN2)nc2c(C)cccc12 , thanks.
Given back: 23.8

Asked: Please supply the value of reported inhibition for the item Cc1ccc2c(c1)-c1c(cnn1CC(=O)NC(C)CCc1ccco1)CO2 (stereo unspecified)
Given back: 11.5

Asked: Recall and state the measured inhibition for COC(=O)Nc1ccc(S(=O)(=O)N2CCCCCC2)cc1 .
Given back: 17.1

Asked: Tell us which inhibition value is on record for Cc1oc2c(CN3CCCC3)c(O)ccc2c(=O)c1-c1ccccc1
Given back: 14

Asked: Give reported inhibition value for COc1cc(OC)cc(-c2nc3cc(C)ccc3o2)c1
Given back: -23.5

Just for reference, PubChem BioAssay is where these values come from.
